substances and their reported normalised inhibition (eCFP-eYFP dual reporter)
# SYSTEM_TESTED: UBE2L6
# PROCEDURE_TEXT: reporter assay of Huesken 2005; note: test concentration or dose not given here
# MEASUREMENT_SETUP: siRNA
Oligonucleotides are written 5' to 3', each unit as a sugar letter and its base; * is a phosphorothioate linkage, no mark a phosphodiester; rarer units and linkages stand in square brackets, end groups in braces. Plain capitals give the bases only. d = 2'-deoxy (DNA); r = 2'-OH (RNA)
VALUE_KIND: normalised inhibition (eCFP-eYFP dual reporter)

1. sense rArCrCrArArGrArUrCrUrArCrCrArCrCrCrCrAdTdT / antisense rUrGrGrGrGrUrGrGrUrArGrArUrCrUrUrGrGrUdTdG ... 90.8%
2. sense rUrCrArArUrGrUrGrCrUrGrGrUrGrArArUrArGdTdT / antisense rCrUrArUrUrCrArCrCrArGrCrArCrArUrUrGrAdGdG ... 69.1%
3. sense rCrCrCrArUrGrArUrCrArArArUrUrCrArCrArAdTdT / antisense rUrUrGrUrGrArArUrUrUrGrArUrCrArUrGrGrGdAdG ... 95.2%
4. sense rArArCrCrUrGrCrGrCrArUrCrArGrCrUrUrCrCdTdT / antisense rGrGrArArGrCrUrGrArUrGrCrGrCrArGrGrUrUdGdA ... 51.6%
5. sense rCrCrGrArArGrArGrUrUrCrArCrCrCrUrCrCrGdTdT / antisense rCrGrGrArGrGrGrUrGrArArCrUrCrUrUrCrGrGdCdA ... 62.6%
6. sense rArCrCrUrGrCrGrGrArArCrCrUrGrUrCrCrArGdTdT / antisense rCrUrGrGrArCrArGrGrUrUrCrCrGrCrArGrGrUdAdT ... 73.8%
7. sense rUrUrCrArArGrCrCrUrCrCrCrArUrGrArUrCrAdTdT / antisense rUrGrArUrCrArUrGrGrGrArGrGrCrUrUrGrArAdCdG ... 71.2%
8. sense rUrCrCrUrGrGrArGrGrCrCrCrUrCrArArUrGrUdTdT / antisense rArCrArUrUrGrArGrGrGrCrCrUrCrCrArGrGrAdCdT ... 74.2%
9. sense rGrArUrUrUrGrCrCrUrGrCrCrCrArUrCrArUrCdTdT / antisense rGrArUrGrArUrGrGrGrCrArGrGrCrArArArUrCdTdG ... 71.3%
10. sense rArUrCrArGrCrUrUrCrCrCrGrCrCrGrGrArGrUdTdT / antisense rArCrUrCrCrGrGrCrGrGrGrArArGrCrUrGrArUdGdC ... 52.3%
11. sense rCrUrUrGrCrArCrCrArArGrArCrUrUrGrCrCrAdTdT / antisense rUrGrGrCrArArGrUrCrUrUrGrGrUrGrCrArArGdGdC ... 89.6%
12. sense rUrGrUrGrCrUrGrGrUrGrArArUrArGrArCrCrGdTdT / antisense rCrGrGrUrCrUrArUrUrCrArCrCrArGrCrArCrAdTdT ... 59%
13. sense rCrUrUrCrCrCrGrCrCrGrGrArGrUrArUrCrCrGdTdT / antisense rCrGrGrArUrArCrUrCrCrGrGrCrGrGrGrArArGdCdT ... 38.1%
14. sense rGrGrArGrUrArUrCrCrGrUrUrCrArArGrCrCrUdTdT / antisense rArGrGrCrUrUrGrArArCrGrGrArUrArCrUrCrCdGdG ... 84.6%
15. sense rArGrGrGrArGrCrCrCrCrUrGrCrGrGrArUrGrGdTdT / antisense rCrCrArUrCrCrGrCrArGrGrGrGrCrUrCrCrCrUdGdA ... 60.1%
16. sense rGrUrCrCrUrGrGrUrGrUrGrGrCrArCrGrCrUrCdTdT / antisense rGrArGrCrGrUrGrCrCrArCrArCrCrArGrGrArCdAdT ... 74.2%
17. sense rArArUrGrCrCrGrArArGrArGrUrUrCrArCrCrCdTdT / antisense rGrGrGrUrGrArArCrUrCrUrUrCrGrGrCrArUrUdCdT ... 51.6%
18. sense rArArArGrCrCrUrUrCrArArCrCrUrGrCrGrCrAdTdT / antisense rUrGrCrGrCrArGrGrUrUrGrArArGrGrCrUrUrUdCdA ... 69.8%
19. sense rCrUrGrGrArGrGrCrCrCrUrCrArArUrGrUrGrCdTdT / antisense rGrCrArCrArUrUrGrArGrGrGrCrCrUrCrCrArGdGdA ... 48.2%
20. sense rArUrGrGrArCrCrUrCrGrCrUrGrArCrCrUrGrCdTdT / antisense rGrCrArGrGrUrCrArGrCrGrArGrGrUrCrCrArUdCdC ... 43.8%
21. sense rGrArGrCrCrCrCrUrGrCrGrGrArUrGrGrArCrCdTdT / antisense rGrGrUrCrCrArUrCrCrGrCrArGrGrGrGrCrUrCdCdC ... 55.9%
22. sense rCrCrUrGrCrGrGrArUrGrGrArCrCrUrCrGrCrUdTdT / antisense rArGrCrGrArGrGrUrCrCrArUrCrCrGrCrArGrGdGdG ... 81.8%
23. sense rCrArArArUrUrCrArCrArArCrCrArArGrArUrCdTdT / antisense rGrArUrCrUrUrGrGrUrUrGrUrGrArArUrUrUrGdAdT ... 85.9%
24. sense rArGrUrUrCrArCrCrCrUrCrCrGrArUrUrCrGrGdTdT / antisense rCrCrGrArArUrCrGrGrArGrGrGrUrGrArArCrUdCdT ... 55.3%

----------
# SYSTEM_TESTED: CDC34
# PROCEDURE_TEXT: reporter assay of Huesken 2005
# MEASUREMENT_SETUP: siRNA
Oligonucleotides are given in HELM: sugar(base)linkage, 5' to 3'; d 2'-deoxyribose, r ribose, m 2'-O-methylribose, p phosphate. ss, as = sense and antisense strand
VALUE_KIND: normalised inhibition (eCFP-eYFP dual reporter) (%)

1. RNA1{r(C)p.r(C)p.r(U)p.r(C)p.r(C)p.r(U)p.r(G)p.r(A)p.r(A)p.r(C)p.r(G)p.r(A)p.r(G)p.r(C)p.r(C)p.r(C)p.r(A)p.r(A)p.r(C)p.d(T)p.d(T)}|RNA2{r(G)p.r(U)p.r(U)p.r(G)p.r(G)p.r(G)p.r(C)p.r(U)p.r(C)p.r(G)p.r(U)p.r(U)p.r(C)p.r(A)p.r(G)p.r(G)p.r(A)p.r(G)p.r(G)p.d(G)p.d(A)}$$$RNA1{StrandType:ss}|RNA2{StrandType:as}$ ... 68.2
2. RNA1{r(A)p.r(C)p.r(C)p.r(U)p.r(C)p.r(U)p.r(U)p.r(C)p.r(U)p.r(A)p.r(C)p.r(G)p.r(A)p.r(C)p.r(G)p.r(A)p.r(C)p.r(U)p.r(A)p.d(T)p.d(T)}|RNA2{r(U)p.r(A)p.r(G)p.r(U)p.r(C)p.r(G)p.r(U)p.r(C)p.r(G)p.r(U)p.r(A)p.r(G)p.r(A)p.r(A)p.r(G)p.r(A)p.r(G)p.r(G)p.r(U)p.d(C)p.d(T)}$$$RNA1{StrandType:ss}|RNA2{StrandType:as}$ ... 89.3
3. RNA1{r(G)p.r(A)p.r(A)p.r(G)p.r(G)p.r(A)p.r(U)p.r(C)p.r(G)p.r(G)p.r(G)p.r(A)p.r(G)p.r(U)p.r(A)p.r(C)p.r(A)p.r(C)p.r(A)p.d(T)p.d(T)}|RNA2{r(U)p.r(G)p.r(U)p.r(G)p.r(U)p.r(A)p.r(C)p.r(U)p.r(C)p.r(C)p.r(C)p.r(G)p.r(A)p.r(U)p.r(C)p.r(C)p.r(U)p.r(U)p.r(C)p.d(C)p.d(C)}$$$RNA1{StrandType:ss}|RNA2{StrandType:as}$ ... 74.3

----------
# SYSTEM_TESTED: UBE2H
# PROCEDURE_TEXT: reporter assay of Huesken 2005
# MEASUREMENT_SETUP: siRNA
Oligonucleotides are written 5' to 3', each unit as a sugar letter and its base; * is a phosphorothioate linkage, no mark a phosphodiester; rarer units and linkages stand in square brackets, end groups in braces. Plain capitals give the bases only. d = 2'-deoxy (DNA); r = 2'-OH (RNA)
VALUE_KIND: normalised inhibition (eCFP-eYFP dual reporter) (%)

1. sense rArUrGrGrUrGrArCrGrCrUrGrCrArGrCrCrArUdTdT / antisense rArUrGrGrCrUrGrCrArGrCrGrUrCrArCrCrArUdTdG ... 86.6
2. sense rCrUrArUrGrArUrCrUrUrArCrCrArArUrArUrAdTdT / antisense rUrArUrArUrUrGrGrUrArArGrArUrCrArUrArGdAdG ... 110
3. sense rCrCrArUrArUrGrArArGrGrCrGrGrArGrUrArUdTdT / antisense rArUrArCrUrCrCrGrCrCrUrUrCrArUrArUrGrGdTdG ... 102
4. sense rGrGrUrGrArCrGrCrUrGrCrArGrCrCrArUrGrUdTdT / antisense rArCrArUrGrGrCrUrGrCrArGrCrGrUrCrArCrCdAdT ... 91
5. sense rGrArArUrUrUrGrUrArGrUrGrArArGrUrUrUrUdTdT / antisense rArArArArCrUrUrCrArCrUrArCrArArArUrUrCdAdT ... 96.7
6. sense rCrArArUrArUrArUrUrUrGrArGrUrCrCrUrUrCdTdT / antisense rGrArArGrGrArCrUrCrArArArUrArUrArUrUrGdGdT ... 84.2
